B1: glmS ribozyme (parent)
chain: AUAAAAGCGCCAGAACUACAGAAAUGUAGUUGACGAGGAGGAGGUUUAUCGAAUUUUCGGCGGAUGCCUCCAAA

- Variants of: B1
- EXPERIMENTAL DETAILS: self-cleavage kobs at 640 uM GlcN6P; higher = faster cleavage; RNA array
- ASSAY CONTEXT: with glucosamine-6-phosphate
Variants at the floor of the assay were thinned out.
REPORTED ENDPOINT: self-cleavage kobs at 640 uM GlcN6P (s⁻¹)
Express it in s⁻¹; write the number only.

A12C G40C
0.0002
U54C U57A
7.93e-05
A6U U69G
0.000103
A14U U30G U69G C71G
0.000132
A52G C67A
0.000199

-- ask Look up self-cleavage kobs at 640 uM GlcN6P for this variant: A15G G41U
-- reply 0.000507

-- ask Please look up its self-cleavage kobs at 640 uM GlcN6P: U31G U55A
-- reply 0.00221

-- ask Quick one: self-cleavage kobs at 640 uM GlcN6P for G32A G66U C68G ?
-- reply 0.000111

-- ask Requested read-out: self-cleavage kobs at 640 uM GlcN6P. Entry: A12U G66C
-- reply 0.00058

-- ask If you can, please state the reported self-cleavage kobs at 640 uM GlcN6P value of G59A C70G .
-- reply 2.83e-05

-- ask Find the recorded self-cleavage kobs at 640 uM GlcN6P belonging to C50U U55A and report it.
-- reply 2.43e-05

-- ask Item under review: G32U C71G . Reported self-cleavage kobs at 640 uM GlcN6P?
-- reply 6.13e-05

-- ask What value of self-cleavage kobs at 640 uM GlcN6P has been reported for the following variant? A14U C71G
-- reply 0.000111

Reference source for all entries: the supplement of paper PMC7125110
